Entries and their measured MIC follow.
System: Streptococcus pneumoniae
assay_method_text: Antimicrobial activity against Streptococcus pneumoniae R6 harboring PBP2x2349 and PBP1a2349 mutant gene after 48 hrs by agar dilution method
Assay type: functional
measurement_setup: R6, 48 h
metric: MIC

- smiles_repr: "CC1(C)S[C@@H]2[C@H](NC(=O)Cc3ccccc3)C(=O)N2[C@H]1C(=O)O"
  measurement: "0.035 µg/mL"
- smiles_repr: "Cc1onc(-c2ccccc2)c1C(=O)N[C@@H]1C(=O)N2[C@@H]1SC(C)(C)[C@@H]2C(=O)O"
  measurement: "0.85 µg/mL"
- smiles_repr: "CCN1CCN(C(=O)N[C@@H](C(=O)N[C@@H]2C(=O)N3[C@@H]2SC(C)(C)[C@@H]3C(=O)O)c2ccccc2)C(=O)C1=O"
  measurement: "0.11 µg/mL"
- smiles_repr: "CO/N=C(\\C(=O)N[C@@H]1C(=O)N2C(C(=O)O)=C(COC(C)=O)CS[C@H]12)c1csc(N)n1"
  measurement: "1 µg/mL"

* * *

System: Streptococcus pneumoniae
assay_method_text: Antimicrobial activity against Streptococcus pneumoniae R6 harboring PBP2x T338G mutant gene after 48 hrs by agar dilution method
Type: functional
measurement_setup: R6, 48 h
MIC listing for selected compounds.

- smiles_repr: "CCN1CCN(C(=O)N[C@@H](C(=O)N[C@@H]2C(=O)N3[C@@H]2SC(C)(C)[C@@H]3C(=O)O)c2ccccc2)C(=O)C1=O"
  MIC [µg/mL]: 0.1
- smiles_repr: "CC1(C)S[C@@H]2[C@H](NC(=O)Cc3ccccc3)C(=O)N2[C@H]1C(=O)O"
  MIC [µg/mL]: 0.03
- smiles_repr: "Cc1onc(-c2ccccc2)c1C(=O)N[C@@H]1C(=O)N2[C@@H]1SC(C)(C)[C@@H]2C(=O)O"
  MIC [µg/mL]: 0.25
- smiles_repr: "CO/N=C(\\C(=O)N[C@@H]1C(=O)N2C(C(=O)O)=C(COC(C)=O)CS[C@H]12)c1csc(N)n1"
  MIC [µg/mL]: 0.045

* * *

System: Streptococcus pneumoniae
assay_method_text: Antimicrobial activity against Streptococcus pneumoniae R6 harboring PBP2x T338G mutant gene, disruption at PBP1a and aad9 disruption in CiaR gene after 48 hrs by agar dilution method
Format: functional
measurement_setup: R6, 48 h
metric: MIC

- smiles_repr: "CCN1CCN(C(=O)N[C@@H](C(=O)N[C@@H]2C(=O)N3[C@@H]2SC(C)(C)[C@@H]3C(=O)O)c2ccccc2)C(=O)C1=O"
  assay_system: "Streptococcus pneumoniae"
  measurement: "0.08 µg/mL"
- smiles_repr: "Cc1onc(-c2ccccc2)c1C(=O)N[C@@H]1C(=O)N2[C@@H]1SC(C)(C)[C@@H]2C(=O)O"
  assay_system: "Streptococcus pneumoniae"
  measurement: "0.25 µg/mL"
- smiles_repr: "CC1(C)S[C@@H]2[C@H](NC(=O)Cc3ccccc3)C(=O)N2[C@H]1C(=O)O"
  assay_system: "Streptococcus pneumoniae"
  measurement: "0.025 µg/mL"
- smiles_repr: "CO/N=C(\\C(=O)N[C@@H]1C(=O)N2C(C(=O)O)=C(COC(C)=O)CS[C@H]12)c1csc(N)n1"
  assay_system: "Streptococcus pneumoniae"
  measurement: "0.055 µg/mL"
